Every entry's value here was drawn from ChEMBL document CHEMBL1127886.

- testedTarget: Beta-lactamase TEM (Escherichia coli, UniProt P62593)
- Sequence (P62593 whole entry): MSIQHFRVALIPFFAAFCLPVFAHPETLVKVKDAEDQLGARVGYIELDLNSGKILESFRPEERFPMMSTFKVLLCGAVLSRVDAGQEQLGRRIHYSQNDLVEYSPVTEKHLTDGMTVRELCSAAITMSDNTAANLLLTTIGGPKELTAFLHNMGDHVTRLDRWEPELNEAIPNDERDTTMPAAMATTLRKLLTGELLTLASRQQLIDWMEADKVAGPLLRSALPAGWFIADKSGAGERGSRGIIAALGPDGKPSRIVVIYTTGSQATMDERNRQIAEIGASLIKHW
- protocolSummary: Inhibitory constant was determined against class A RTEM-1 Beta-lactamase from Escherichia coli
Below is a list of entries, each paired with its recorded Ki value.
Kindly provide the numeric value in µM only, without the unit symbol.

{"columns": ["structureSmilesString", "Ki [µM]"],
 "data": [
  ["OB(O)CCc1ccccc1Cl", 106],
  ["OB(O)CCC1CCCCC1", 276],
  ["OB(O)CCc1ccc(Cl)cc1", 41]
]}

Short answer for OB(O)c1cccc(-c2ccccc2)c1 : Ki was 13.9

Lab note: measured Ki of Cc1cccc(CCB(O)O)c1 was 83

COc1ccc(B(O)O)cc1 has a reported Ki of 670

The compound listed as Cc1ccccc1CCB(O)O has a reported Ki of 141

Noted for COc1cccc(CCB(O)O)c1 : its Ki reads 50
